Target: RXRγ (UniProt P28705)
Sequence (P28705 1-463): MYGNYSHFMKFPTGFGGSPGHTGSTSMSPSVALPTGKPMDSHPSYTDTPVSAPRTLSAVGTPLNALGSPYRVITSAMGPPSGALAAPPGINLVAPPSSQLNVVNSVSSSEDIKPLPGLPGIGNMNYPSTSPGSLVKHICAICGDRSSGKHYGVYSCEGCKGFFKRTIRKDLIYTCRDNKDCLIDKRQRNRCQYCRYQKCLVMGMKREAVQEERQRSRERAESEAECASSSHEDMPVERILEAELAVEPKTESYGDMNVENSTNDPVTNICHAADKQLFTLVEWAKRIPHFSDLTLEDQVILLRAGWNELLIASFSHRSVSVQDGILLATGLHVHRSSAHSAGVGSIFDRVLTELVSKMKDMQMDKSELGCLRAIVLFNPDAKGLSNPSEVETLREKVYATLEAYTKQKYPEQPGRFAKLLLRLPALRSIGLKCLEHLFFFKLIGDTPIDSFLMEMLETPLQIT
Assay: receptor transactivation assay, RXRγ
Type: cell-based
Parameters: RXR Trans; other: RXRγ; first entry of cell
Conditions: first entry of cell, read-out: RXR Trans. EC50 (nM) γ
Excerpt: A holoreceptor transactivation assay and a ligand binding assay which measure the antagonist/agonist like activity of the compounds of the invention, or their ability to bind to the several retinoid receptor subtypes, respectively, are described in published PCT Application No. WO WO93/11755 (particularly on pages 30-33 and 37-41) published on Jun. 24, 1993, the specification of which is also incorporated herein by reference. […]
quantity.kind: EC50 (nM)
Reply with just the number (in nM).

compound.string: CC(/C=C/[C@@H]1C[C@@H]1c1ccc2c(c1)C(C)(C)CO2)=C\C(=O)O
unit.abbreviation: nM
EC50: 743
--
compound.string: CC(/C=C/[C@@H]1C[C@]1(C)c1cc(-c2c(C)cccc2C)c2c(c1)C(C)(C)CO2)=C\C(=O)O
unit.abbreviation: nM
EC50: 0.86
--
compound.string: CCCCC(=O)CCc1cc([C@@]2(C)C[C@H]2/C=C/C(C)=C/C(=O)O)cc2c1OCC2(C)C
unit.abbreviation: nM
EC50: 395
--
compound.string: CC(/C=C/[C@@H]1C[C@]1(C)c1ccc2c(c1)C(C)(C)CO2)=C\C(=O)O
unit.abbreviation: nM
EC50: 2.7
--
compound.string: CCCCCCCc1ccccc1-c1cc([C@@]2(C)C[C@H]2/C=C/C(C)=C/C(=O)O)cc2c1OCC2(C)C
unit.abbreviation: nM
EC50: 850

Here is another compound to look at.
# returns recorded EC50 (system: RXRγ (UniProt P28705)) for CCc1cc([C@@]2(C)C[C@H]2/C=C/C(C)=C/C(=O)O)cc2c1OCC2(C)C
0.56
